Numbers sourced from patent US20140205597A1.

molecular target: T1, purified interference factor(s) from serum of Donor C; assay: Biacore, immobilized interference factor
T1 construct: text names Donors 8, 19 and 30
readout-name: binding vs Reference Sequence (=100%)

>>> observed_result("SEQ ID NO 65 (VHH, P14A) VHH: EVQLVESGGGLVQAGGSLRLSCAASRSIGRLDRMGWYRHRPGEPRELVATITGGSSINYGDSVKGRFTISIDNSKNTVYLQMNSLRPEDTAVYYCNFNKYVTSRDTWGQGTLVTVSS")
64
>>> observed_result("SEQ ID NO 75 (VHH, C-terminal: AA) VHH: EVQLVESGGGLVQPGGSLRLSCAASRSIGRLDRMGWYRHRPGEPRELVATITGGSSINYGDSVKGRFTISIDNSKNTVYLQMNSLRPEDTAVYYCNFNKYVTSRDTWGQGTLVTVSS")
16
>>> observed_result("SEQ ID NO 72 (VHH, S112G, S113G) VHH: EVQLVESGGGLVQPGGSLRLSCAASRSIGRLDRMGWYRHRPGEPRELVATITGGSSINYGDSVKGRFTISIDNSKNTVYLQMNSLRPEDTAVYYCNFNKYVTSRDTWGQGTLVTVGG")
56
>>> observed_result("SEQ ID NO 38 (bispecific antibody, Nanobody construct; C-terminal: A) EVQLVESGGGLVQPGGSLRLSCAASGFTFSSYAMSWVRQAPGKGLEWVSGIKSSGDSTRYAGSVKGRFTISRDNAKNTLYLQMNSLRPEDTAVYYCAKSRVSRTGLYTYDNRGQGTLVTVSSGGGGSGGGGSGGGGSGGGGSEVQLVESGGGLVQPGGSLRLSCAASGRTFNNYAMGWFRQAPGKEREFVAAITRSGVRSGVSAIYGDSVKDRFTISRDNAKNTLYLQMNSLRPEDTAVYYCAASAIGSGALRRFEYDYSGQGTLVTVSSA")
7
